methodSummary: activity coefficient (dimensionless); of the first substance listed, at infinite dilution; xn = mol fraction of the nth substance listed
details: 343.15 K; Liquid; Chromatography; x1 = 0
# binarize activity coefficient: threshold 30 inclusive, high side True, low side False

{"compound": "CCCCCCCCCC [decane] + CCCOC[n+]1ccc(N(C)C)cc1.O=S(=O)([N-]S(=O)(=O)C(F)(F)F)C(F)(F)F", "labelValue": "True"}
{"compound": "CCCCCCCCCCC [undecane] + CCCOC[n+]1ccn(C)c1.F[B-](F)(F)F", "labelValue": "True"}
{"compound": "CCCCCCCCCCCC [dodecane] + CCCOC[n+]1ccc(N(C)C)cc1.O=S(=O)([N-]S(=O)(=O)C(F)(F)F)C(F)(F)F", "labelValue": "True"}
{"compound": "c1ccsc1 [thiophene] + CCCOC[n+]1ccn(C)c1.N#C[N-]C#N", "labelValue": "False"}
{"compound": "CCCCCCCCCC [decane] + CCCOC[n+]1ccn(Cc2ccccc2)c1.F[B-](F)(F)F", "labelValue": "True"}
{"compound": "CCc1ccccc1 [ethylbenzene] + N#C[N-]C#N.N#C[N-]C#N.c1ccc(Cn2cc[n+](COCCCOC[n+]3ccn(Cc4ccccc4)c3)c2)cc1", "labelValue": "False"}
{"compound": "CCCCCCCCC [nonane] + CCCCCCCCn1cc[n+](COCCC)c1C.O=S(=O)([N-]S(=O)(=O)C(F)(F)F)C(F)(F)F", "labelValue": "False"}

====

Here the recorded activity coefficient is given for each entry.
methodSummary: activity coefficient (dimensionless); of the first substance listed, at infinite dilution; xn = mol fraction of the nth substance listed
details: 323.15 K; Liquid; Chromatography; x1 = 0

{"molecule": "CC#N [acetonitrile] + CCCCCCCCn1cc[n+](COCCCOC[n+]2ccn(CCCCCCCC)c2C)c1C.N#C[N-]C#N.N#C[N-]C#N", "activity coefficient": 0.46}
{"molecule": "ClC(Cl)(Cl)Cl [tetrachloromethane] + Cn1cc[n+](COCCCOC[n+]2ccn(C)c2)c1.O=S(=O)([N-]S(=O)(=O)C(F)(F)F)C(F)(F)F.O=S(=O)([N-]S(=O)(=O)C(F)(F)F)C(F)(F)F", "activity coefficient": 3.21}
{"molecule": "CCCCCCCC [octane] + CCCOC[n+]1ccn(Cc2ccccc2)c1.N#C[N-]C#N", "activity coefficient": 70.1}
{"molecule": "CCCCCCCCCC [decane] + CCCOC[n+]1ccn(Cc2ccccc2)c1.N#C[N-]C#N", "activity coefficient": 144}

====

methodSummary: activity coefficient (dimensionless); of the first substance listed, at infinite dilution; xn = mol fraction of the nth substance listed
details: 323.15 K; Liquid; Chromatography; x1 = 0
Here the recorded activity coefficient is given for each entry.

{"compound": "CCOCC [diethyl ether] + CCCCCCCCn1cc[n+](COCCC)c1C.O=S(=O)([N-]S(=O)(=O)C(F)(F)F)C(F)(F)F", "activity coefficient": 1.13}
{"compound": "CCC[N+](=O)[O-] [1-nitropropane] + Cn1cc[n+](COCCCOC[n+]2ccn(C)c2)c1.O=S(=O)([N-]S(=O)(=O)C(F)(F)F)C(F)(F)F.O=S(=O)([N-]S(=O)(=O)C(F)(F)F)C(F)(F)F", "activity coefficient": 0.54}
{"compound": "ClC(Cl)(Cl)Cl [tetrachloromethane] + CCCOC[n+]1ccn(C)c1.N#C[N-]C#N", "activity coefficient": 4.04}
{"compound": "CC1CCCC1 [methylcyclopentane] + CN(C)c1cc[n+](COCCCOC[n+]2ccc(N(C)C)cc2)cc1.O=S(=O)([N-]S(=O)(=O)C(F)(F)F)C(F)(F)F.O=S(=O)([N-]S(=O)(=O)C(F)(F)F)C(F)(F)F", "activity coefficient": 11}
{"compound": "ClCCl [dichloromethane] + CCCOC[n+]1ccn(C)c1.O=S(=O)([N-]S(=O)(=O)C(F)(F)F)C(F)(F)F", "activity coefficient": 0.71}
{"compound": "CCC[N+](=O)[O-] [1-nitropropane] + CCCCCCCCn1cc[n+](COCCC)c1C.N#C[N-]C#N", "activity coefficient": 0.76}
{"compound": "C1COCCO1 [1,4-dioxane] + CCCCCCCCn1cc[n+](COCCC)c1C.N#C[N-]C#N", "activity coefficient": 0.77}

====

methodSummary: activity coefficient (dimensionless); of the first substance listed, at infinite dilution; xn = mol fraction of the nth substance listed
details: 323.15 K; Liquid; Chromatography; x1 = 0
# binarize activity coefficient: threshold 2 inclusive, high side yes, low side no

{"compound": "c1ccsc1 [thiophene] + Cn1cc[n+](COCCCOC[n+]2ccn(C)c2)c1.O=S(=O)([N-]S(=O)(=O)C(F)(F)F)C(F)(F)F.O=S(=O)([N-]S(=O)(=O)C(F)(F)F)C(F)(F)F", "labelValue": "no"}
{"compound": "CC#N [acetonitrile] + CN(C)c1cc[n+](COCCCOC[n+]2ccc(N(C)C)cc2)cc1.O=S(=O)([N-]S(=O)(=O)C(F)(F)F)C(F)(F)F.O=S(=O)([N-]S(=O)(=O)C(F)(F)F)C(F)(F)F", "labelValue": "no"}
{"compound": "c1ccccc1 [benzene] + Cn1cc[n+](COCCCOC[n+]2ccn(C)c2)c1.N#C[N-]C#N.N#C[N-]C#N", "labelValue": "yes"}
{"compound": "Cc1ccccc1C [1,2-dimethylbenzene] + CCCOC[n+]1ccn(C)c1.O=S(=O)([N-]S(=O)(=O)C(F)(F)F)C(F)(F)F", "labelValue": "yes"}
{"compound": "CCc1ccccc1 [ethylbenzene] + CCCOC[n+]1ccn(Cc2ccccc2)c1.F[B-](F)(F)F", "labelValue": "yes"}
{"compound": "CCCC(C)=O [pentan-2-one] + N#C[N-]C#N.N#C[N-]C#N.c1ccc(Cn2cc[n+](COCCCOC[n+]3ccn(Cc4ccccc4)c3)c2)cc1", "labelValue": "yes"}

====

Here the recorded activity coefficient is given for each entry.
methodSummary: activity coefficient (dimensionless); of the first substance listed, at infinite dilution; xn = mol fraction of the nth substance listed
details: 333.15 K; Liquid; Chromatography; x1 = 0
measure: activity coefficient

{"compound": "CC(C)CO [2-methyl-1-propanol] + CCCOC[n+]1ccn(C)c1.N#C[N-]C#N", "measurement": 1.25}
{"compound": "CCO [ethanol] + Cn1cc[n+](COCCCOC[n+]2ccn(C)c2)c1.O=S(=O)([N-]S(=O)(=O)C(F)(F)F)C(F)(F)F.O=S(=O)([N-]S(=O)(=O)C(F)(F)F)C(F)(F)F", "measurement": 0.96}
{"compound": "CC(C)OC(C)C [diisopropyl ether] + CCCOC[n+]1ccn(C)c1.O=S(=O)([N-]S(=O)(=O)C(F)(F)F)C(F)(F)F", "measurement": 4.82}

====

methodSummary: activity coefficient (dimensionless); of the first substance listed, at infinite dilution; xn = mol fraction of the nth substance listed
details: 343.15 K; Liquid; Chromatography; x1 = 0
activity coefficient strictly under 2 means Fulfilled; at 2 or over means Not fulfilled.

{"molecule": "CC(C)O [propan-2-ol] + CCCOC[n+]1ccn(Cc2ccccc2)c1.F[B-](F)(F)F", "labelValue": "Fulfilled"}
{"molecule": "CCCCCCCCCCC [undecane] + N#C[N-]C#N.N#C[N-]C#N.c1ccc(Cn2cc[n+](COCCCOC[n+]3ccn(Cc4ccccc4)c3)c2)cc1", "labelValue": "Not fulfilled"}
{"molecule": "ClC(Cl)Cl [trichloromethane] + CCCOC[n+]1ccn(C)c1.N#C[N-]C#N", "labelValue": "Fulfilled"}
{"molecule": "c1ccsc1 [thiophene] + CCCOC[n+]1ccn(Cc2ccccc2)c1.N#C[N-]C#N", "labelValue": "Fulfilled"}
{"molecule": "C1CCCCCC1 [cycloheptane] + CCCOC[n+]1ccn(C)c1.F[B-](F)(F)F", "labelValue": "Not fulfilled"}
{"molecule": "CCCCCCCCC [nonane] + CCCCCCCCn1cc[n+](COCCCOC[n+]2ccn(CCCCCCCC)c2C)c1C.N#C[N-]C#N.N#C[N-]C#N", "labelValue": "Not fulfilled"}
{"molecule": "Cc1ccc(C)cc1 [1,4-dimethylbenzene] + N#C[N-]C#N.N#C[N-]C#N.c1ccc(Cn2cc[n+](COCCCOC[n+]3ccn(Cc4ccccc4)c3)c2)cc1", "labelValue": "Not fulfilled"}

====

methodSummary: activity coefficient (dimensionless); of the first substance listed, at infinite dilution; xn = mol fraction of the nth substance listed
details: 323.15 K; Liquid; Chromatography; x1 = 0

{"molecule": "CCCCCCCCCCC [undecane] + CCCOC[n+]1ccn(Cc2ccccc2)c1.N#C[N-]C#N", "activity coefficient": 208}
{"molecule": "ClC(Cl)Cl [trichloromethane] + CCCOC[n+]1ccn(Cc2ccccc2)c1.N#C[N-]C#N", "activity coefficient": 0.62}
{"molecule": "CC(C)O [propan-2-ol] + CCCCCCCCn1cc[n+](COCCCOC[n+]2ccn(CCCCCCCC)c2C)c1C.O=S(=O)([N-]S(=O)(=O)C(F)(F)F)C(F)(F)F.O=S(=O)([N-]S(=O)(=O)C(F)(F)F)C(F)(F)F", "activity coefficient": 0.68}

The reported numbers originate from the NIST ThermoML archive (doi:10.1016/j.fluid.2014.11.020).
